Listed here: items and their measured EC50.
# Target Or System: TRPML3 (Homo sapiens, UniProt Q8TDD5)
# Construct: expressed in transfected cells
# Sequence (Q8TDD5 whole entry): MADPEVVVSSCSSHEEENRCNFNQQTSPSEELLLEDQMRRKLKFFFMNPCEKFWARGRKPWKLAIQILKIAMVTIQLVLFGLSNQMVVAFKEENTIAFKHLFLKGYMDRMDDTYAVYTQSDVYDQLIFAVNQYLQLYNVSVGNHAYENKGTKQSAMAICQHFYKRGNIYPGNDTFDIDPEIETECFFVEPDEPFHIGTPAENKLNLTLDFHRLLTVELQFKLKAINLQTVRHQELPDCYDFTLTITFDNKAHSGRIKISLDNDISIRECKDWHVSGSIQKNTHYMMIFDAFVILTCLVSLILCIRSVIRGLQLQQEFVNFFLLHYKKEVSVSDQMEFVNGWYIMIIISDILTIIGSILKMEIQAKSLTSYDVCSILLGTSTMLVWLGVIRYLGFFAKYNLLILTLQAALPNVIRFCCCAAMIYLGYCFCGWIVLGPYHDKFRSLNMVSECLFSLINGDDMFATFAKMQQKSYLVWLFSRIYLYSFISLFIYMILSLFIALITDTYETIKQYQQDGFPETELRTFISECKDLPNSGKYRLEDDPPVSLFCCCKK
# Assay: Fluorescent TRPML3 assay (performed as for TRPML1, substituting the TRPML3 subtype)
# Type: cell-based

Compound: CCc1ccnc(-n2cc(C(F)(F)F)c3c(N4C[C@@H](C)N(C(=O)OC(C)(C)C)C[C@@H]4C)ncnc32)c1 [Compound 718]
EC50: 100 to 500 nM

Compound: Cc1cn(-c2cccc(C(F)(F)F)c2)c2ncnc(N3C[C@@H](C)N(C(=O)OC(C)(C)C)C[C@@H]3C)c12 [Compound 667]
EC50: < 100 nM

Compound: Cc1cn(-c2cncc(C#N)c2)c2ncnc(N3CCN(C(=O)OC(C)(C)C)C[C@@H]3C)c12 [Compound 694]
EC50: < 100 nM

Compound: Cc1cn(-c2cc(C#N)ccn2)c2ccnc(N3C[C@@H](C)N(C(=O)OC(C)(C)C)C[C@@H]3C)c12 [Compound 705]
EC50: < 100 nM

Compound: C[C@H]1CN(C(=O)OC(C)(C)C)CCN1c1ncnc2c1c(N(C)C1CC1)cn2-c1cccc(C#N)c1 [Compound 526]
EC50: 100 to 500 nM

Compound: C[C@@H]1CN(c2ncnc3c2c(C(F)F)cn3-c2cc(F)cc(F)c2)[C@@H](C)CN1C(=O)OC1(C)CC1 [Compound 607]
EC50: 500 to 2000 nM

Compound: C[C@@H]1CN(c2ncnc3c2c(CC(F)(F)F)cn3-c2cc(C#N)ncn2)[C@@H](C)CN1C(=O)OC(C)(C)C [Compound 618]
EC50: < 100 nM

Compound: Cc1cn(-c2cncnc2)c2ncnc(N3CCN(C(=O)OC(C)(C)C)C[C@@H]3C)c12 [Compound 691]
EC50: 500 to 2000 nM

Compound: C[C@@H]1CN(c2ncnc3c2c(C(F)(F)F)cn3-c2cncc(C#N)c2)[C@@H](C)CN1C(=O)OC(C)(C)C [Compound 662]
EC50: < 100 nM

Compound: COc1ccnc(-n2cc(C(F)(F)F)c3c(N4C[C@@H](C)N(C(=O)OC(C)(C)C)C[C@@H]4C)ncnc32)c1 [Compound 664]
EC50: < 100 nM

Compound: C[C@@H]1CN(c2ncnc3c2c(C(F)(F)F)cn3C2CCOCC2)[C@@H](C)CN1C(=O)OC(C)(C)C [Compound 630]
EC50: > 2000 nM

Compound: C[C@@H]1CN(c2ncnc3c2c(C(F)(F)F)cn3-c2cc(C#N)ccn2)[C@@H](C)CN1C(=O)OC1CCC1 [Compound 516]
EC50: < 100 nM

Compound: C[C@@H]1CN(c2ncnc3c2c(C(C)(C)C)cn3-c2cc(C#N)ccn2)[C@@H](C)CN1C(=O)OC(C)(C)C [Compound 525]
EC50: < 100 nM

Compound: Cc1cn(-c2cccc(C#N)c2)c2ncnc(N3CCN(C(=O)OC(C)(C)C)C[C@@H]3C)c12 [Compound 686]
EC50: < 100 nM

Recorded values, source patent US20250136606A1.
